// data source = PubChem BioAssay AID1347142

Biological target: N-terminal Xaa-Pro-Lys N-methyltransferase 1 (Homo sapiens); note: nearly all actives have a fitted effect of over 80% in size
Assay: qHTS Assay for Inhibitors of N-terminal methyltransferase 1 (NTMT1): ThioGlo3 Assay Confirmatory Screen, Round 1.
Conditions: NTMT1 SAHH-coupled ThioGlo3 fluorescence, 30 min; series mostly up to 56.8 µM
Inconclusive results are not listed. The source made the active and inactive calls. Calls come from the whole dose curve; as a rule, active = well fitted inhibition curve with a large enough effect; inconclusive = small, poorly fitted or top-dose-only effect; inactive = no such curve, though single readings can be large or run the other way.
API: response.call in t (active), f (inactive)

// known answers, use as guide
- COc1cc2c(NC3CCN(CC4CCCCC4)CC3)nc(N3CCCN(C)CC3)nc2cc1OCCCN1CCCCC1: t
- COc1cc2nc(N3CCCN(C)CC3)nc(NC3CCN(C)CC3)c2cc1OC: t
- COc1cc2c(NC3CCN(C)CC3)nc(N3CCCCC3)nc2cc1OCCCN(C)C: f
- Nc1ncnc2c1ncn2[C@@H]1O[C@H](COP(=O)(O)OP(=O)(O)O)[C@@H](O)[C@H]1O: f
- COc1cc2nc(N3CCCN(C)CC3)nc(NC3CCN(C)C3)c2cc1OC (stereo not given): t
- Nc1nc(Nc2ccccc2)nc2c1ncn2[C@@H]1O[C@H](CO)C(O)[C@H]1O (stereo not given in full): t

Outcome? COc1cc2c(NC3CCN(C4CCCCC4)CC3)nc(N3CCCN(C)CC3)nc2cc1OCCCN1CCCCC1
t

Outcome? COc1cc2nc(N(C)C)nc(NC3CCN(C)CC3)c2cc1OC
t

Outcome? COc1cc2c(NC3CCN(C)CC3)nc(N3CCCN(C)CC3)nc2cc1OCCOCCN1CCCC1
t

Outcome? Nc1nc(Cl)nc2c1ncn2[C@@H]1O[C@H](CO)C(O)[C@H]1O (stereo not given in full)
f

Outcome? COC1C(O)C(CO)OC1n1cnc2c(NC3CCCCC3)ncnc21 (stereo not given)
f

Outcome? COc1cc2nc(N3CCN(C)CC3)nc(NC(C)C)c2cc1OC
t

Outcome? COc1cc2nc(N3CCN(C)CC3)nc(NC3CCCC3)c2cc1OC
t

----------
Target: N-terminal Xaa-Pro-Lys N-methyltransferase 1 (Homo sapiens) (UniProt Q9BV86); note: nearly all actives have a fitted effect of over 80% in size
Sequence (Q9BV86 whole entry, looked up): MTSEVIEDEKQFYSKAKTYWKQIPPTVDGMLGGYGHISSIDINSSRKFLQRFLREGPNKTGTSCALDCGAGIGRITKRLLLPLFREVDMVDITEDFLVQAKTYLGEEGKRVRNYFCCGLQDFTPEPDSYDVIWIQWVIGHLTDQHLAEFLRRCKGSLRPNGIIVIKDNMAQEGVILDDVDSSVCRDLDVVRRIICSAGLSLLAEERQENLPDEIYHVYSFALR
Assay: qHTS Assay for Inhibitors of N-terminal methyltransferase 1 (NTMT1): ThioGlo3 Assay Confirmatory Screen, Round 1.
Conditions: NTMT1 SAHH-coupled ThioGlo3 fluorescence, 30 min; series mostly up to 56.8 µM
Inconclusive results are not listed. Calls of active or inactive are those of the source. The call rests on the fitted dose curve; in most records, active means well fitted inhibition curve with a large enough effect; inconclusive means small, poorly fitted or top-dose-only effect; inactive means no such curve, though single readings can be large or run the other way.
API: response.call in t = active, f = inactive

// known answers, use as guide
• Nc1nc(Cl)nc2c1ncn2[C@H]1C[C@H](O)[C@@H](CO)O1 = f
• COc1cc2c(NC3CCN(C(C)C)CC3)nc(N3CCCN(C4CCCCC4)CC3)nc2cc1OCCCN1CCCC1 = t
• OC[C@H]1O[C@H](n2cnc3c(NC4CCCC4)nc(Cl)nc32)[C@@H](O)[C@@H]1O = f
• COc1cc2c(NC3CCN(C)CC3)nc(N3CCCN(C)CC3)nc2cc1OCCCCN = t
• COc1cc2c(NC3CCN(C)CC3)nc(N3CCCN(C)CC3)nc2cc1O = t

Outcome? O=c1[nH]cnc2c1ncn2C1O[C@H](CO)[C@@H](O)[C@H]1O (some centres not stated)
f

Outcome? NC(=S)c1ccc[n+]([C@@H]2O[C@@H](COP(=O)([O-])OP(=O)(O)OC[C@H]3O[C@@H](n4cnc5c(N)ncnc54)[C@H](OP(=O)(O)O)[C@@H]3O)C(O)C2O)c1 (some centres not stated)
f
